Target: Lysophosphatidic acid receptor 5 (Homo sapiens, UniProt Q9H1C0)
Sequence (Q9H1C0 whole entry): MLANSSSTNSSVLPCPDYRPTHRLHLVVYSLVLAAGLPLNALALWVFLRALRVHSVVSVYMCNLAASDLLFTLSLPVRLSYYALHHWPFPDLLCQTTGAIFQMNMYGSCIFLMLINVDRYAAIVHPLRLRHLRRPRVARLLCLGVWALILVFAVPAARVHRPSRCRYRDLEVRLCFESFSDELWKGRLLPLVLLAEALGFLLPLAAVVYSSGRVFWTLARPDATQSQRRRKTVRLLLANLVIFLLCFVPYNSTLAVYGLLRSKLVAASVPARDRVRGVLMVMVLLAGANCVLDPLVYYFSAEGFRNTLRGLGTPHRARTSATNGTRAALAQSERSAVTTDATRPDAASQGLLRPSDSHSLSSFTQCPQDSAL
Experiment: Antagonist activity at human LPA5 receptor expressed in RH7777 cells assessed as inhibition of EC80 concentration of hexadecyl LPA-induced calcium mobilization incubated for 15 mins by FLIPR method relative to hexadecyl LPA
Type: functional, cell-based
Conditions: filed as antagonist
Task for the reader: assign each of the following compounds its reported inhibition.
Give bare numbers, in %.

Answered examples (3):
| compound-structure-string | inhibition (%) |
| --- | --- |
| C#CC1CCN(C(=O)c2cn(-c3cccc(N(C)C)c3)c(=O)c3cc(OC)c(OC)cc23)CC1 | 105 |
| COc1cc2c(C(=O)N3CCC(F)CC3)cn(-c3cccc(C(C)C)c3)c(=O)c2cc1OC | 103 |
| COc1cc2c(C(=O)N3CCC(OC)CC3)cn(-c3cccc(N(C)C)c3)c(=O)c2cc1OC | 89 |

Could you tell me inhibition for each of these compounds? They are listed below.
1. COc1cc2c(C(=O)N3CCCc4ccccc43)cn(-c3cccc(N(C)C)c3)c(=O)c2cc1OC
2. COc1cc2c(C(=O)N3CCCCC3)cn(-c3ccc4ccn(C)c4c3)c(=O)c2cc1OC
3. COc1cc2c(C(=O)N3CCC(C)CC3)cn(-c3cccc(N(C)C)c3)c(=O)c2cc1OC
4. COc1cc2c(C(=O)N3CCCCC3)cn(-c3noc4ccc(C)cc34)c(=O)c2cc1OC
5. COc1cc2c(C(=O)N3CCCCCCC3)cn(-c3cccc(N(C)C)c3)c(=O)c2cc1OC
6. COc1cc2c(C(=O)N3CCCCC3)cn(-c3ccc4occ(C)c4c3)c(=O)c2cc1OC

Response:
1: 86; 2: 104; 3: 105; 4: 108; 5: 109; 6: 105

The following compounds each have a reported value; give each one's inhibition.
1. COc1cc2c(C(=O)N3CCCCC3)cn(-c3ccc4occc4c3)c(=O)c2cc1OC
2. COc1cc2c(C(=O)N3CCC(C(F)(F)F)CC3)cn(-c3cccc(N(C)C)c3)c(=O)c2cc1OC
3. COc1cc2c(C(=O)N3CCCCC3)cn(-c3cccc(C(C)C)c3)c(=O)c2cc1OC
4. COc1cc2c(C(=O)N3CCCCC3)cn(-c3ccc4cccc(C)c4c3)c(=O)c2cc1OC

Response:
93
87
105
108

Provide inhibition values for the following items, in order.
1. COc1cc2c(C(=O)N3CCC(F)CC3)cn(-c3ccc4scc(C)c4c3)c(=O)c2cc1OC
2. CCCOc1cc2c(C(=O)N3CCC(F)CC3)cn(-c3cccc(N(C)C)c3)c(=O)c2cc1OC

Response:
1: 107; 2: 109

Kindly give each listed record's inhibition.
1. COc1cc2c(C(=O)N3CCC(C)(C)CC3)cn(-c3cccc(N(C)C)c3)c(=O)c2cc1OC
2. COc1cc2c(C(=O)N3CCCCC3)cn(-c3cccc(C(C)=O)c3)c(=O)c2cc1OC
3. COc1cc2c(C(=O)N3CCCCC3)cn(-c3ccc4scc(C)c4c3)c(=O)c2cc1OC
4. COc1cc2c(C(=O)N3CCC(C#N)CC3)cn(-c3cccc(N(C)C)c3)c(=O)c2cc1OC

Response:
[90, 74, 105, 89]

* * *

Target: Lysophosphatidic acid receptor 5 (Homo sapiens)
Experiment: Antagonist activity at human LPA5 receptor expressed in RH7777 cells assessed as inhibition of EC80 concentration of hexadecyl LPA-induced calcium mobilization incubated for 15 mins by FLIPR method relative to hexadecyl LPA
Format: functional, cell-based
Conditions: filed as antagonist
readout-type: inhibition (%)
One number for each entry, in %.

| compound-structure-string | inhibition / % |
| --- | --- |
| COc1cc2c(=O)n(-c3cccc(N(C)C)c3)cc(C(=O)N3CCC(F)CC3)c2cc1O | 93 |
| COc1cc2c(C(=O)N3CCCCC3)cn(-c3cccc(N(C)C)c3)c(=O)c2cc1OC | 104 |
| COc1cc2c(C(=O)N3CCC(c4ccccc4)CC3)cn(-c3cccc(N(C)C)c3)c(=O)c2cc1OC | 108 |
| COc1cc2c(C(=O)N3C4CCCC3CC4)cn(-c3cccc(N(C)C)c3)c(=O)c2cc1OC | 103 |

State the recorded inhibition for every item in the following list.
1. COc1cc2c(C(=O)N3CCCCC3)cn(-c3ccc4sccc4c3)c(=O)c2cc1OC
2. COc1cc2c(C(=O)N3CCC(F)CC3)cn(-c3cccc(N(C)C)c3)c(=O)c2cc1OC
3. COc1cc2c(C(=O)N3CCC(F)CC3)cn(-c3ccc4occc4c3)c(=O)c2cc1OC
4. C#CC1CCN(C(=O)c2cn(-c3ccc4scc(C)c4c3)c(=O)c3cc(OC)c(OC)cc23)CC1
5. COc1cc2c(=O)n(-c3cccc(N(C)C)c3)cc(C(=O)N3CCC(F)CC3)c2cc1OC1CCCCC1

Response:
[101, 102, 88, 107, 96]

* * *

Target: Lysophosphatidic acid receptor 5 (Homo sapiens, UniProt Q9H1C0)
Assay: Antagonist activity at human LPA5 receptor expressed in RH7777 cells assessed as inhibition of EC80 concentration of hexadecyl LPA-induced calcium mobilization incubated for 15 mins by FLIPR method relative to hexadecyl LPA
Format: functional, cell-based
Conditions: filed as antagonist
readout-type: inhibition (%)
Numbers only, in %.

Worked examples follow.
| compound | inhibition [%] |
| --- | --- |
| COc1cc2c(C(=O)N3CCCCC3)cn(-c3cccc(C(C)(C)C)c3)c(=O)c2cc1OC | 107 |
| COc1cc2c(C(=O)N3CCC(F)CC3)cn(-c3ccc4occ(C)c4c3)c(=O)c2cc1OC | 102 |
| COc1cc2c(=O)n(-c3cccc(N(C)C)c3)cc(C(=O)N3CCC(F)CC3)c2cc1OC1CCCC1 | 103 |
| COc1cc2c(C(=O)N3CCCCC3)cn(-c3ccc4onc(C)c4c3)c(=O)c2cc1OC | 56 |
| CCN1CCc2ccc(-n3cc(C(=O)N4CCC(F)CC4)c4cc(OC)c(OC)cc4c3=O)cc21 | 104 |

Give inhibition for each listed item.
1. COc1cc2c(=O)n(-c3cccc(N(C)C)c3)cc(C(=O)N3CCC(F)CC3)c2cc1OCC(F)(F)F
2. COc1cc2c(C(=O)N3CCCC(C)C3)cn(-c3cccc(N(C)C)c3)c(=O)c2cc1OC (racemic)
3. COc1cc2c(C(=O)N3CCCCC3C)cn(-c3cccc(N(C)C)c3)c(=O)c2cc1OC (racemic)
4. COc1cc2c(C(=O)N3CCOCC3)cn(-c3cccc(N(C)C)c3)c(=O)c2cc1OC

Response:
74
104
98
71

* * *

I'd appreciate it if you could supply inhibition values for the items below.
Target: Lysophosphatidic acid receptor 5 (Homo sapiens)
Assay: Antagonist activity at human LPA5 receptor expressed in RH7777 cells assessed as inhibition of EC80 concentration of LPA-induced cAMP accumulation preincubated for 30 mins followed by Eu-cAMP tracer addition and measured after 1 hr by TR-FRET assay relative to hexadecyl LPA
Format: functional, cell-based
Settings: filed as antagonist
Give bare numbers, in %.

Examples with answers:
| compound-structure-string | readout-type | reported-result |
| --- | --- | --- |
| COc1cc2c(C(=O)N3CCCCC3)cn(-c3ccc4occ(C)c4c3)c(=O)c2cc1OC | inhibition | 88 |
| COc1cc2c(C(=O)N3CCC(F)CC3)cn(-c3ccc4occ(C)c4c3)c(=O)c2cc1OC | inhibition | 100 |

For the next question, use this compound.
Query: Indicate the recorded inhibition value for this compound: C#CC1CCN(C(=O)c2cn(-c3cccc(N(C)C)c3)c(=O)c3cc(OC)c(OC)cc23)CC1
Response: 101

* * *

Provide the reported pIC50 of each item.
Biological target: Lysophosphatidic acid receptor 5 (Homo sapiens)
Test: Antagonist activity at human LPA5 receptor expressed in RH7777 cells assessed as inhibition of EC80 concentration of hexadecyl LPA-induced calcium mobilization incubated for 15 mins by FLIPR method
Assay type: functional, cell-based
pIC50: −log10 of the molar value.

| compound-structure-string | reported-result |
| --- | --- |
| COc1cc2c(C(=O)N3CCCCC3)cn(-c3ccccn3)c(=O)c2cc1OC | < 5.00 |
| COc1cc2c(C(=O)N(C)Cc3ccncc3)cn(-c3cccc(N(C)C)c3)c(=O)c2cc1OC | < 5.00 |
| CCCCCNC(=O)c1cn(-c2cccc(N(C)C)c2)c(=O)c2cc(OC)c(OC)cc12 | < 5.00 |
| CN(C)c1cccc(-n2cc(C(=O)N3CCC(F)CC3)c3ccccc3c2=O)c1 | < 5.00 |
| COc1ccc2c(=O)n(-c3cccc(N(C)C)c3)cc(C(=O)N3CCC(F)CC3)c2c1 | < 5.00 |

Attention now turns to another entry.
Query: Identify measured pIC50 obtained with Lysophosphatidic acid receptor 5 (Homo sapiens) for COc1cc2c(C(=O)N3CCCCC3)cn(-c3cccc(C(=O)N(C)C)c3)c(=O)c2cc1OC .
Response: < 5.00
